The reported measurements were obtained from ChEMBL document CHEMBL3988442.

Tested on: Wolbachia pipientis
Assay: Anti-Wolbachia Cell-Based Screen
Format: functional
Set-up: scale not given: in the data most compounds retested in dose-response had high values
Details: 5 µM
Screen size: about 48,000 compounds; about 13,000 (27%) showed an effect of 50% or more. Some of the results follow.
reported_endpoint: Percent Effect (%)
Give the value in % but do not write % after it.

Check out these entries, answers already filled in.
• O=C(NC1CC1)[C@@H]1CN(Cc2ccc3c(c2)OCO3)C[C@H]2OCC[C@H]21.O=C(O)C(F)(F)F = -3.513
• Cc1ncsc1CN1CC[C@H]2OCC[C@@]2(C(=O)NC2CC2)C1.O=C(O)C(F)(F)F = 0.183
• CNC(=O)[C@@]12CCO[C@@H]1CCN(Cc1cccc(C)c1)C2.O=C(O)C(F)(F)F = 5.352
• CC(C)NC(=O)[C@@]12CCO[C@@H]1CCN(Cc1ccc3c(c1)OCO3)C2.O=C(O)C(F)(F)F = 90.31

Which Percent Effect is listed for O=C(NC1CC1)[C@@]12CCO[C@@H]1CCN(Cc1ccc3c(c1)OCO3)C2.O=C(O)C(F)(F)F ?
117

// lookup Percent Effect for Cc1ncsc1CN1CC[C@H]2OCC[C@@]2(C(=O)NC(C)C)C1.O=C(O)C(F)(F)F
3.331

Quick one: Percent Effect of CNC(=O)[C@@]12CCO[C@@H]1CCN(Cc1ccc3c(c1)OCO3)C2.O=C(O)C(F)(F)F ?
92.17

# get_value(readout='Percent Effect', item= O=C(NC1CC1)[C@H]1CN(Cc2ccc3c(c2)OCO3)C[C@H]2OCC[C@@H]12.O=C(O)C(F)(F)F )
-14.17

* * *

Listed below: Percent Effect values for each entry.
Test system: Wolbachia pipientis
Experiment: Anti-Wolbachia Cell-Based Screen
Assay type: functional
Set-up: scale not given: in the data most compounds retested in dose-response had high values
Conditions: 5 µM
The campaign covered roughly 48,000 compounds. About 13,000 (27%) showed an effect of 50% or more. This is one part of the list.
Return type: number; implicit unit %.

- COc1nccnc1N1CCC2(CCCN(C(C)C)C2=O)C1 (centres undefined): -3.964
- CCOCCn1c(=O)[nH]c2cc(C(=O)N(C)Cc3nc(C)cs3)ccc21: -23.7
- Cc1cc(C)c2c(N(C)CC3COCCO3)ncnc2n1 (centres undefined): -3.038
- CCC1CN(C(=O)c2[nH]nc(C)c2Br)CCO1 (centres undefined): -57.1
- Cc1ncsc1COC(=O)c1cccc2c1OCCO2: 128
- Cc1nc(COC(=O)c2cccc3c2OCCO3)no1: 110.5
- Cc1nc(COC(=O)c2cccc3c2OCCO3)cs1: 117.7
- Cc1ccnn1CCC(=O)N1CCOC(CCc2ccccc2)C1 (centres undefined): -2.997
- COc1cc2c(cc1OC)C(=O)C(Sc1nnnn1C)C2 (centres undefined): 95.35
- COC(=O)N1CCN(c2ncnc3nc(C)cc(C)c23)CC1: 98.52

Name the recorded Percent Effect for O=C(CSc1ccccn1)N1C[C@H]2CC[C@@H]1CN(Cc1cscn1)C2 .
3.579

Value lookup for Percent Effect; key = Cc1noc(C)c1CN(C)C(C)c1cccs1 (centres undefined)
-4.592

* * *

Tested on: Wolbachia pipientis
Test: Anti-Wolbachia Cell-Based Screen
Assay type: functional
Design: scale not given: in the data most compounds retested in dose-response had high values
Details: 5 µM
The campaign covered roughly 48,000 compounds. About 13,000 (27%) showed an effect of 50% or more. This is one part of the list.
reported_endpoint: Percent Effect (%)
Kindly provide the numeric value in % only, without the unit symbol.

Worked examples follow.
* CC(C)C1CN(c2ncccc2Cl)CCC(=O)N1Cc1ccc(F)cc1 (stereo unspecified) | 6.297
* O=C(O)C(F)(F)F.O=C(c1ccccn1)N1CCn2cnc(COCC3CC3)c2C1 | 22.66

Query the reported Percent Effect for Wolbachia pipientis; item: COCc1ncn2c1CN(S(=O)(=O)Cc1ccc(C)cc1)CC2.O=C(O)C(F)(F)F
14.75

Report Percent Effect for CC(=O)N1CCC(N2CCOC[C@H]2c2nc(-c3ccc(Cl)s3)c[nH]2)CC1 tested on Wolbachia pipientis.
-14.52

Value wanted: Percent Effect (Wolbachia pipientis) of entry O=S(=O)(NCCN1CC=CC1)c1cncc(Cl)c1
-9.615

Reported Percent Effect for Wolbachia pipientis, given Nc1nnc(CCCNc2ncnc3c2CCN(C(=O)C2CC2)C3)s1 ?
2.255
